Test system: DU-145 prostate
Test: NCI-60 one-dose screen, 48 h (100 = growth as untreated, 0 = no growth, -100 = all killed)
Conditions: 10 µM unless noted
About 83,000 compounds went through this panel and 20% of them were active in at least one assay; those are over-represented in the sample as a whole. Calls of active or inactive are those of the source. How the source made its calls: active means growth percent below 10; inactive means the rest.
Readout Name: growth

As a guide, the following entries are already answered.
Cpd Smiles: COc1ccc(Oc2ccc(/C=C/C(=O)c3ccc(OC)c(OC)c3)cc2)cc1
Measured Result: 76.6% (inactive)
--
Cpd Smiles: COc1ccc(C(=O)/C=C/c2ccccc2)cc1S(N)(=O)=O
Measured Result: 41.7% (inactive)
--
Cpd Smiles: COc1ccc2cc(C(=O)N3CCC([C@@H](C)C(=O)NCc4ccc5c(c4)OCO5)CC3)[nH]c2c1
Measured Result: 60.5% [50 µM] (inactive)

What does the record list as growth for `O=S(=O)(Nc1cc(F)cc(F)c1)c1ccc(-c2cnc(C3CC3)o2)cc1` ?
70.4% (inactive)

Likewise for `Cc1ccc(-c2csc(NC(=O)CSc3nc(N)cc(N)n3)n2)cc1` ?
77.2% (inactive)
